test system: NCI/ADR-RES ovarian; assay: NCI-60 one-dose screen, 48 h (100 = growth as untreated, 0 = no growth, -100 = all killed); settings: 10 µM unless noted
This is part of a sample that, as a whole, favours compounds with a hit. Of some 83,000 tested, about 20% had one in any assay.
testReadout: growth (%)
// return numeric value only (unit: %, not printed)

smilesStr | unitsLabel | growth
Cc1cc2nc3cc(C)c(N)cc3[n+](-c3ccccc3)c2cc1N | % | 101
COc1ccc(C(=O)COC(=O)[C@H](C[Se][Se]C[C@H](NC(=O)c2ccc(Br)cc2F)C(=O)OCC(=O)c2ccc(OC)cc2)NC(=O)c2ccc(Br)cc2F)cc1 | % | -60

Shift focus to the following entry.
I am curious: what growth value has been reported for COc1cc(/C=C/c2ccccc2)cc(OC)c1 ?
99.6

###

test system: SF-295 CNS; experiment: NCI-60 one-dose screen, 48 h; conditions: 10 µM unless noted
Compounds without any hit were thinned out: in the full panel of roughly 83,000, 20% have a hit. The source made the active and inactive calls. The calls were made as follows: active = growth percent below 10; inactive = the rest.
Reply using exactly one outcome from TRUE (active), FALSE (inactive)

Please review the following examples before continuing.
compound | targetEntity | answerLabel
c1ccc2c(-c3nc(-c4c[nH]c5ccncc45)cs3)c[nH]c2c1 | SF-295 CNS | FALSE
COc1ccc(S(=O)(=O)n2c3ccccc3n3ncc(-c4nnc(C)o4)c23)cc1 | SF-295 CNS | TRUE
CC(=O)N1N=C(c2ccc(Nc3nc(Nc4ccc(F)cc4)nc(Nc4ccc(Cl)cc4)n3)cc2)CC1c1ccc(Cl)cc1 (centres undefined) | SF-295 CNS | FALSE
BrCCCc1n(Cc2ccc3ccccc3c2)c2ccccc2[n+]1Cc1ccc2ccccc2c1 | SF-295 CNS | TRUE
S=c1nc(-c2ccccc2)oc(=NC2CCCCC2)n1C1CCCCC1 | SF-295 CNS | TRUE

Switching to the query record.
What was the test verdict on Cc1ccc2c(n1)C(=O)C(Cl)=C(Nc1ccccc1C(C)C)C2=O ?
FALSE

###

system: NCI-H460 lung; experiment: NCI-60 one-dose screen, 48 h (100 = growth as untreated, 0 = no growth, -100 = all killed); settings: 10 µM unless noted
Compounds without any hit were thinned out: in the full panel of roughly 83,000, 20% have a hit.
testReadout: growth (%)
// return numeric value only (unit: %, not printed)

compound | unitsLabel | resultValue
NCCCNc1nc2ccccc2c2c(=O)c3cc(F)cc(Cl)c3sc12 | % | -74

I am curious: what growth value has been reported for CCn1cnc2c1c(=O)[nH]c(=O)n2CC1CCC(CNS(=O)(=O)c2ccc(OC3CCOCC3)c(F)c2)CC1 (stereo not drawn) ?
72.6

Item: CCCC1CCC(O)(C(C)(O)C(=O)NC2C(=O)N3NCCCC3C(=O)N(O)C(C)C(=O)N3NCCCC3C(=O)N3NCC(O)CC3C(=O)NC(C)C(=O)OC2C(C)C)OC1CC (stereo not drawn)
-82.4

Item: COc1cc(C(=O)/C=C/c2c(Cl)nc3sccn23)cc(OC)c1OC
87.1

###

system: SF-539 CNS; assay: NCI-60 one-dose screen, 48 h; settings: 10 µM unless noted
This is part of a sample that, as a whole, favours compounds with a hit. Of some 83,000 tested, about 20% had one in any assay. Calls of active or inactive are those of the source. Rule for the calls: active = growth percent below 10; inactive = the rest.
Reply using exactly one outcome from active, inactive

Please review the following examples before continuing.
molecule | answerLabel
c1ccc(Nc2cc(-c3cccnc3)[nH]n2)cc1 | inactive
O=C(N/N=C/[C@H](O)[C@@H](O)[C@@H](O)[C@H](O)CO)c1ccc(NC(=O)c2cccnc2)cc1 | inactive
COc1c(B(O)O)cc(C)cc1-c1nc2ccc3[nH]ncc3c2c2c1CCCC2 | inactive

What was the test verdict on COc1cc2cc(Oc3ccc(NC(=O)Nc4ccc(Cl)c(Cl)c4)cc3)c(C)nc2cc1OCCN1CCOCC1 ?
inactive

Item: O=C(CSc1nccc(Nc2ccc(S(=O)(=O)Nc3nccs3)cc2)n1)c1ccc(C(F)(F)F)cc1
inactive

Item: O=[N+]([O-])c1ccccc1NCSc1ccc(Cl)cc1
inactive

Item: O=[N+]([O-])c1ccc(Cl)c(-c2cc(CCCCO)on2)c1
inactive

Item: COc1ccc(C2C(C#N)=C(N)Oc3c2sc2c(C)cccc32)cc1 (stereo not given)
active

Item: COC(=O)/C=C1\S/C(=N\Nc2ccc([N+](=O)[O-])cc2[N+](=O)[O-])N(C2CCCCC2)C1=O
inactive

Item: COc1cc(C(=O)/C=C/c2ccc(OCCCCCC[P+](c3ccccc3)(c3ccccc3)c3ccccc3)cc2)cc(OC)c1OC
active

Item: COc1cc2cc(Oc3ccc(NC(=O)Nc4ccc(Cl)c(C(F)(F)F)c4)cc3)c(C)nc2cc1OCCN1CCOCC1
inactive

Item: Cc1ccc(C(CC(=O)O)c2c(C)[nH][nH]c2=O)cc1 (stereo not given)
inactive

###

tested on: NCI-H23 lung; assay: NCI-60 one-dose screen, 48 h; conditions: 10 µM unless noted
Compounds without any hit were thinned out: in the full panel of roughly 83,000, 20% have a hit. Calls of active or inactive are those of the source. Rule for the calls: active = growth percent below 10; inactive = the rest.
Reply using exactly one outcome from active, inactive

molecule | answerLabel
C[C@H](C(=O)Nc1ccc(S(N)(=O)=O)cc1)S(=O)(=O)c1ccccc1 | inactive

What was the test verdict on COc1cccc2c(=O)c3c(sc12)c(NCCCN)nc1ccccc13 ?
inactive

Item: COC1=C(C)C(=O)c2c(c(CCCl)c3n2CCC3O)C1=O (stereo not drawn)
active

Item: CC(C)c1cc(C(C)C)c(S(=O)(=O)Oc2ccc(NC(=O)c3ccc(Cl)cc3)cc2)c(C(C)C)c1
inactive

Item: O=C1NC(=O)C(c2ccccc2)(c2ccccc2)N1Cc1cn(-c2c3ccccc3nc3ccccc23)nn1
inactive

Item: C/C(=C\C(=O)c1ccc(Cl)cc1)c1ccc(Cl)cc1
inactive

Item: CCOC(=O)C1=C(N)Oc2c(sc3c(C)cccc23)C1c1ccc(OC)cc1 (stereo not drawn)
inactive

Item: O=C1CSC(c2c(Cl)cccc2Cl)N1c1nc(Cl)cc(=O)[nH]1 (stereo not drawn)
inactive

###

test system: NCI-H522 lung; test: NCI-60 one-dose screen, 48 h (100 = growth as untreated, 0 = no growth, -100 = all killed); conditions: 10 µM unless noted
About 83,000 compounds went through this panel and 20% of them were active in at least one assay; those are over-represented in the sample as a whole. Activity calls are given as the source filed them. The calls were made as follows: active = growth percent below 10; inactive = the rest.
Recorded growth values for a group of compounds are listed next.

Reference set, count: 5
compound | growth
CCCCCCNC(=O)Oc1ccc(/C(=C(\C)c2ccc(Cl)cc2)c2ccc(OCCCN(C)C)cc2)cc1 | 83.7% (inactive)
O=C(Nc1ccc(I)cc1F)c1cc(I)ccc1O | -5.05% (active)
C[C@H]1[C@H]2[C@H]3CC[C@@H]4[C@@]5(C)CC[C@H](O)C(C)(C)[C@@H]5CC[C@@]4(C)[C@]3(C)CC[C@]23CO[C@]1(C)[C@@H](C(=O)/C=C\c1cccnc1)C3 | 38% (inactive)
CN1CCN(Cc2ccc(NC(=O)c3ccc(C(C)(C)C)c(C#Cc4cnc5cccnn45)c3)cc2C(F)(F)F)CC1 | -73.5% (active)
NCCOc1ncccc1/C=C1\c2ccccc2-c2ccc(C(F)F)cc21 | 79% (inactive)

Provide the documented growth with NCI-H522 lung as the system for O=c1c2cc(F)ccc2sc2c(NCCN3CCOCC3)nc3ccccc3c12
65.6% (inactive)

Item: CCOC(=O)c1cnn2c3ccccc3n(S(=O)(=O)c3ccc(OC)cc3)c12
20.6% (inactive)

Item: COc1ccc(-c2nnc(COc3ccc(Cl)cc3Cl)o2)cc1OC
19.4% (inactive)

Item: Cc1ccccc1C(=O)NN
92% (inactive)

Item: Cc1ccc(-c2nc(N3CCN(CC(=O)Nc4ccc(Cl)cc4)CC3)c3ccccc3n2)cc1
83.6% (inactive)

Item: COC(=O)c1ccc2[nH]c(O)c(C(=Nc3ccc(N(C)C(=O)CN4CCN(C)CC4)cc3)c3ccccc3)c2c1
50.3% (inactive)

###

test system: A549/ATCC NSCLC; assay: NCI-60 one-dose screen, 48 h (100 = growth as untreated, 0 = no growth, -100 = all killed); conditions: 10 µM unless noted
Compounds without any hit were thinned out: in the full panel of roughly 83,000, 20% have a hit.
Output class 1 for growth not less than 60%; output class 0 otherwise.

Please review the following examples before continuing.
compound | answerLabel
O=c1cc(SCc2ccccc2)nc[nH]1 | class 1
C=C1C(=O)O[C@H]2[C@H]1CC/C(COC(=O)CSCC(=O)OC/C1=C/CC[C@@]3(C)O[C@H]3[C@H]3OC(=O)C(=C)[C@@H]3CC1)=C\CC[C@@]1(C)O[C@@H]21 | class 1
CCc1cccc2c1S/C(=C/c1ccc(Cl)cc1)C2=O | class 1
CCOC(=O)Nc1ccc(-c2nc(-c3cccc(OC)c3)c(-c3ccnc(Br)c3)[nH]2)cc1 | class 0
NCCNc1nc2ccccc2c2c(=O)c3cc(F)ccc3sc12 | class 1

# check: growth of NC[C@@H]1O[C@H](O[C@@H]2[C@@H](CO)OC(O[C@@H]3[C@@H](O)[C@H](N)C[C@H](N)[C@H]3OC3O[C@H](CN)[C@@H](O)[C@H](O)[C@H]3N)[C@@H]2O)[C@H](N)[C@@H](O)[C@@H]1O (stereo partly specified) is greater than or equal to 60%
class 1

Item: CCOC(=O)c1nc(Nc2ccc(C(C)=O)cc2)sc1C
class 1
